Please respond with reported composite z-score for every item in the list.
- Procedure Summary: compounds binding Alexa647 anti-His antibody – biochemical, small-molecule microarray, 635 nm fluorescence, artefact control for SMM control protein annotation, primary screen (AID 1128);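 further: score merges feature fluorescence with signal-to-noise for each printed compound spot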
- Run Conditions: higher = more signal
API note: the answer field is a bare number with no unit suffix.

// query Requested read-out: composite z-score. Entry: CC(C)NC(=O)[C@@]1(Cc2ccccc2I)c2ccccc2C(=O)N(Cc2ccccc2C(F)(F)F)[C@H]1c1ccc(CO)cc1
// result 0.992

// query I am curious: what composite z-score value has been reported for COCCOC(=O)N1C(=O)[C@@]2(c3cc(C#CCNC(N)=O)ccc31)[C@H](c1ccc(OCCO)cc1)N1[C@H](c3ccccc3)[C@H](c3ccccc3)OC(=O)[C@H]1[C@@H]2C(=O)N1CCN(c2ncccn2)CC1 ?
// result 0.122

// query # input compound: C=CC[C@]1(C(=O)N(C)C)N=C(c2ccc(OCCCO)cc2)O[C@H]1c1ccccc1 ; wanted: its composite z-score
// result 0.661

// query Quick one: composite z-score for C[C@]12C(=O)N(CCCO)[C@@H]3C(=O)N(c4ccc(Cl)cc4)CC=CC31O[C@@H]1/C=C\CCCOC(=O)C12 (stereo partly drawn) ?
// result 2.25

// query So what does the record say about composite z-score for O=C1CSC(c2cccc([N+](=O)[O-])c2)N1c1ccccc1 (stereo not drawn) ?
// result 0.317

// query Query: composite z-score; subject: O=C(Nc1cc(Br)ccc1C(=O)NCc1cccc(O)c1)c1ccccc1
// result 1.95

// query Query (compound): CC(C)(C)OC(=O)CC[C@]1(C(=O)O)COC(c2ccc(OCCCO)cc2)=N1 ; field requested: composite z-score
// result 0.541

// query Using the record for COCCOC(=O)N1C(=O)[C@@]2(c3cc(C#CCNC(N)=O)ccc31)[C@H](C(N)=O)[C@H]1C(=O)O[C@H](c3ccccc3)[C@H](c3ccccc3)N1[C@@H]2c1ccc(OCCO)cc1 , report its composite z-score.
// result -0.224

// query What measured composite z-score goes with C=CC[C@@]1(C(=O)NCC(O)CO)N=C(c2ccc(OCCCO)cc2)O[C@@H]1c1ccccc1 (stereo partly drawn) ?
// result 1.98

// query Requested read-out: composite z-score. Entry: CC(C)N1CC=CC23O[C@@H]4C=CCOC(=O)[C@@H]4[C@H]2C(=O)N(CCCCCCO)[C@@H]3C1=O (stereo partly drawn)
// result -0.249

// query I would be grateful if you could share the reported composite z-score for CCOC(=O)C[C@H]1[C@H](OC(=O)c2cc3ccccc3oc2=O)[C@@H](NC(=O)c2ccc3ccccc3n2)c2cc(OCCCO)ccc2N1C(=O)c1ccc2ccccc2n1 .
// result 0.81

// query GET /values?readout=composite z-score&item= COc1cccc(C[C@H]2C[C@@H](CO[Si](C(C)C)(C(C)C)C(C)C)N3C(=O)[C@]4(C(C)=O)O[C@]23[C@H]2C(=O)N(C)C(=O)[C@H]24)c1
// result 0.786

// query Reported composite z-score, compound COCCCNC(=O)[C@@]1(Cc2ccccc2CN=[N+]=[N-])N=C(c2ccc(OCCCO)cc2)O[C@H]1c1ccccc1N=[N+]=[N-] : ____
// result 2.29

// query Which measured composite z-score value corresponds to Cc1ccccc1C(O)C1C=CC2C(=O)N(Cc3ccccc3)C(=O)C2N1n1cnnc1 (stereo not drawn) ?
// result 1.54

// query What value of composite z-score has been recorded for this entry: CC(C)(C)OC(=O)CC[C@]1(C(=O)N2CCCCC2)N=C(c2ccc(OCCCO)cc2)O[C@H]1c1ccccc1CN=[N+]=[N-]
// result 3.05

// query For the compound COC(=O)[C@]1(Cc2ccccc2N=[N+]=[N-])N=C(c2ccc(OCCCO)cc2)O[C@@H]1c1ccccc1 , what composite z-score is on record?
// result 0.334

// query Request the reported composite z-score associated with COC(=O)[C@@]1(Cc2ccc(F)cc2)[C@H]2c3cc(C(=O)N(C)C)n(CCSCCO)c3C[C@H]2CN1C(=O)c1ccccc1
// result 2.06

// query Suppose we examine the compound CCOC(=O)C[C@H]1[C@H](OC(=O)Cc2ccc3c(c2)OCO3)[C@@H](NC(=O)c2ccccc2)c2cc(OCCCO)ccc2N1C(=O)c1ccccc1 ; what composite z-score value has been reported?
// result -0.226

// query Which composite z-score is listed for CC(C)C[C@@H]1NC(=O)[C@@H]2C[C@H](C(=O)NCCCC[N+](C)(C)C)[C@H](c3cccc(OCCO)c3)N2C1=O ?
// result 2.63

// query Would you mind telling me what composite z-score value was observed for COC(=O)[C@]1(Cc2ccccc2CN=[N+]=[N-])N=C(c2ccc(OCCCO)cc2)O[C@@H]1c1ccccc1 ?
// result 0.652

// query Using the record for COCCOC(=O)N1C(=O)[C@@]2(c3cc(C#Cc4ccc(OC)cc4)ccc31)[C@H](C(N)=O)[C@H]1C(=O)O[C@H](c3ccccc3)[C@H](c3ccccc3)N1[C@@H]2c1ccc(OCCO)cc1 , report its composite z-score.
// result 1.71

// query What does the data say about its composite z-score? Entry: O=C1NC(=O)C2C1C=CC(C(O)CCc1ccccc1)N2Nc1ccccn1 (stereo not drawn)
// result -0.0572

// query What value of measured composite z-score is listed for CC(C)CCC[C@@H](C)[C@H]1CC[C@@]2(C)C3=C(CC[C@]12C)[C@@]1(C)CC[C@H](OC(=O)C(C)(C)C)C(C)(C)C1CC3 (stereo partly drawn) ?
// result 0.43

// query I would be grateful if you could share the reported composite z-score for CO[C@H]1O[C@H](CO)[C@@H](OC(=O)Nc2cccc(F)c2)[C@H](OC(=O)Nc2ccc3c(c2)OCO3)[C@H]1OC(=O)Nc1ccc2c(c1)OCO2 .
// result 1.62

// query Give the measured composite z-score of Cc1ccc(F)cc1S(=O)(=O)N[C@@H]1CCN(C(=O)c2ccc(OC(C)C)cc2)C1 .
// result 1.42

// query What does the record list as composite z-score for O=C1O[C@H](c2ccccc2)[C@H](c2ccccc2)N2[C@H]1[C@@H](C(=O)N1CCN(c3ncccn3)CC1)[C@]1(C(=O)Nc3ccc(C#CCCO)cc31)[C@H]2c1ccccc1OCCO ?
// result 1.55

// query Any idea what its composite z-score is? The compound is O=C1N(CCS(=O)(=O)c2ccccc2)c2ccccc2[C@H]2OC(c3ccc(OCCCO)cc3)=N[C@@]12CCS(=O)(=O)c1ccccc1
// result 3.19

// query Fill in the blank: the reported composite z-score of CCOC(=O)C[C@H]1[C@H](OC(=O)c2ccccc2-c2ccccc2)[C@@H](NC(=O)c2ccccc2)c2cc(OCCCO)ccc2N1C(=O)Cc1ccc(OC)cc1 is ____.
// result -0.277
